tested_target: threonine--tRNA ligase (Plasmodium falciparum, UniProt Q8IIA4)
measurement_name: Ki (nM)
The figure you give is taken to be in nM; do not add the unit.

State the recorded Ki for this entry: `C[C@@H]1C[C@H](C)C[C@H](C)[C@@H](O)CC(=O)O[C@H]([C@@H]2CCC[C@H]2C(=O)O)C/C=C/C=C(/C#N)[C@H](O)[C@@H](C)C1`
160

====

tested_target: threonine--tRNA ligase (Plasmodium falciparum, UniProt Q8IIA4)
measurement_name: log10 IC50 (log10 of the value in µM)
Response schema: value (number) is log10 of IC50 in units of µM.

Quick check: log10 IC50 on threonine--tRNA ligase (Plasmodium falciparum, UniProt Q8IIA4), item `C[C@@H](O)[C@H](N)C(=O)NS(=O)(=O)c1nc2ccccc2s1` ?
1.85

Quick check: log10 IC50 on threonine--tRNA ligase (Plasmodium falciparum, UniProt Q8IIA4), item `C[C@@H](O)[C@H](N)C(=O)NS(=O)(=O)Oc1cccc2cccnc12` ?
1.74

Quick check: log10 IC50 on threonine--tRNA ligase (Plasmodium falciparum, UniProt Q8IIA4), item `C[C@@H](O)[C@H](N)C(=O)NS(=O)(=O)Oc1cccc2ccccc12` ?
1.56

Quick check: log10 IC50 on threonine--tRNA ligase (Plasmodium falciparum, UniProt Q8IIA4), item `C[C@@H](O)[C@H](N)C(=O)NS(=O)(=O)Oc1ccccc1` ?
1.71

Quick check: log10 IC50 on threonine--tRNA ligase (Plasmodium falciparum, UniProt Q8IIA4), item `C[C@@H](O)[C@H](N)C(=O)NS(=O)(=O)c1nc2cc(-c3cc(N)ncn3)ccc2s1` ?
-1.00

Quick check: log10 IC50 on threonine--tRNA ligase (Plasmodium falciparum, UniProt Q8IIA4), item `C[C@@H](O)[C@H](N)C(=O)NS(=O)(=O)Oc1cccc2nn(-c3cc(N)ncn3)cc12` ?
-0.15

Quick check: log10 IC50 on threonine--tRNA ligase (Plasmodium falciparum, UniProt Q8IIA4), item `C[C@@H](O)[C@H](N)C(=O)NS(=O)(=O)Oc1ccc2ccccc2c1` ?
1.48

Next molecule, please.
Quick check: log10 IC50 on threonine--tRNA ligase (Plasmodium falciparum, UniProt Q8IIA4), item `C[C@@H](O)[C@H](N)C(=O)NS(=O)(=O)Oc1ccc(-c2cc(N)ncn2)cc1` ?
-0.10

====

tested_target: threonine--tRNA ligase (Plasmodium falciparum)
Sequence (Q8IIA4 whole entry): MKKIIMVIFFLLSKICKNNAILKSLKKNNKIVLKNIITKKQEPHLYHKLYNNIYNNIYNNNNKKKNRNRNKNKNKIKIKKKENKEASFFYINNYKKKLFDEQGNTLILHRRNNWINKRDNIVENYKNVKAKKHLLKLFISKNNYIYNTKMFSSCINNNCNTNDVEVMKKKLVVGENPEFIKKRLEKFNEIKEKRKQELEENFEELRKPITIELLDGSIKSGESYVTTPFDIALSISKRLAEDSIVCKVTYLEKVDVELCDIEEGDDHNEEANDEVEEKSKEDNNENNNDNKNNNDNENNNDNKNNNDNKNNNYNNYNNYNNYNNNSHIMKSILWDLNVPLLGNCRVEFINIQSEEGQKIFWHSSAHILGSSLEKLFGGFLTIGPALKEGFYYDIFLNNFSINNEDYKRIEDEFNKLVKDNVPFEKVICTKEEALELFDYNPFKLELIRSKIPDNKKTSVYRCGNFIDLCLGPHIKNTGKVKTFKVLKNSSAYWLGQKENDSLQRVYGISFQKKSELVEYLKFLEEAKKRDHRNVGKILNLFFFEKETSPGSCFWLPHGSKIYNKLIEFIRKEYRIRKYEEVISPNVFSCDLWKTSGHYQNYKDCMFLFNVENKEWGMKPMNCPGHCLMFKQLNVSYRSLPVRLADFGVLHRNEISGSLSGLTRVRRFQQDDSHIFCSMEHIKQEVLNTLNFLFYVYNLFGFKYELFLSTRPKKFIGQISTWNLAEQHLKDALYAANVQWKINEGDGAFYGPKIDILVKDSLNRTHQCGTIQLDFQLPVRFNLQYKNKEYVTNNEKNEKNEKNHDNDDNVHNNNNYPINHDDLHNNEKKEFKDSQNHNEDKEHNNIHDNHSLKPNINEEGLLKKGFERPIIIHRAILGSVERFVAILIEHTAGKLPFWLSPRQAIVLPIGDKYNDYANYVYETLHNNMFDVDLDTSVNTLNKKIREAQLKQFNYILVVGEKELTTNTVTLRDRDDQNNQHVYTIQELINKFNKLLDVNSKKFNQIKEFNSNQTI
assay_info: Inhibition of Plasmodium falciparum Threonyl tRNA synthetase
pIC50: −log10 of the molar value.
Criterion: pIC50 meeting or surpassing 6. Met: Criterion met. Not met: Criterion not met.

Solved entries (count: 4):
Check the entry `C[C@@H]1C[C@H](C)C[C@H](C)[C@@H](O)CC(=O)O[C@H]([C@@H]2CCC[C@H]2C(=O)O)C/C=C/C=C(/C#N)[C@H](O)[C@@H](C)C1` : does pIC50 equal or exceed 6?
Criterion met

Check the entry `C[C@@H](O)[C@H](N)C(=O)NS(=O)(=O)/C=C/c1cccc(-c2cc(N)ncn2)c1` : does pIC50 equal or exceed 6?
Criterion met

Check the entry `C[C@@H](O)[C@H](N)C(=O)NP(=O)(O)OC[C@@H]1C[C@H](O)[C@H](n2cnc3c(N)ncnc32)O1` : does pIC50 equal or exceed 6?
Criterion met

Check the entry `C[C@@H](O)[C@H](N)C(=O)NS(=O)(=O)/C=C/c1ccccc1` : does pIC50 equal or exceed 6?
Criterion not met

Attention now shifts to the item below.
Check the entry `C[C@@H](O)[C@H](N)C(=O)NS(=O)(=O)OC[C@H]1O[C@@H](n2cnc3c(N)ncnc32)[C@H](O)[C@@H]1O` : does pIC50 equal or exceed 6?
Criterion met

Measured values drawn from ChEMBL document CHEMBL5357018 for this set.
